experimental target: recombinant human ALK5 (TGF-βR1) protein (Homo sapiens, UniProt P36897)
Construct: purchased Life Technologies PR9075A
Sequence (P36897 34-503): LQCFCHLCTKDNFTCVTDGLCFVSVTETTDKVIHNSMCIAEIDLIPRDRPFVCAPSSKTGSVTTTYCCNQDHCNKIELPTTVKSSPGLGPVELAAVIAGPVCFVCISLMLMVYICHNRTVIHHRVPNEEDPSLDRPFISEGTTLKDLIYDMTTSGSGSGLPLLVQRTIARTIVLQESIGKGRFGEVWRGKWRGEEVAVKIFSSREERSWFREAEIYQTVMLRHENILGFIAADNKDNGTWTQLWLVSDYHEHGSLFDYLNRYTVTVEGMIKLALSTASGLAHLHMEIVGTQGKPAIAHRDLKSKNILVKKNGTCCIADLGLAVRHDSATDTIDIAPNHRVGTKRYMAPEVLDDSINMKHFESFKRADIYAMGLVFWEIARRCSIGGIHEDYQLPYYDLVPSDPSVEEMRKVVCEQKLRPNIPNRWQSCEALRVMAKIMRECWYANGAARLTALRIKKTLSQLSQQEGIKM
measurement notes: Biochemical ALK5 (TGF-βR1) assay to measure pKi (LANCE Ultra ULight kinase assay)
assay conditions: apparent pKi from pIC50 by Cheng-Prusoff, read-out: ALK5 pKi (converted)
Below, each entry is listed alongside its reported Ki.

Below: 4 molecules and their reported Ki.
Cc1cccc(-c2[nH]cnc2-c2ccc3ncc(C4=CCNCC4)cc3c2)n1 : < 31.6 pM
Cc1cccc(-c2[nH]cnc2-c2ccc3ncc(-c4nc5c(s4)CCNC5)cc3c2)n1 : < 31.6 pM
Cc1cccc(-c2n[nH]cc2-c2ccc3ncc(-c4cn5c(n4)CN(C4CCNC4)CC5)cc3n2)n1 (stereo not shown) : 39.8 to 316 pM
Cc1cccc(-c2[nH]cnc2-c2ccc3ncc(-c4ccc(C(=O)O[C@@H]5CCNC5)cc4)cc3c2)n1 : 39.8 to 316 pM

Task item: What does the data say about its Ki? Entry: Cc1cccc(-c2[nH]cnc2-c2ccc3ncc(Nc4nc5n(n4)CCNC5)cc3c2)n1
Reply: 39.8 to 316 pM

* * *

experimental target: recombinant human ALK5 (TGF-βR1) protein (Homo sapiens)
Construct: purchased Life Technologies PR9075A
measurement notes: Biochemical ALK5 (TGF-βR1) assay to measure pKi (LANCE Ultra ULight kinase assay)
assay conditions: apparent pKi from pIC50 by Cheng-Prusoff, read-out: ALK5 pKi (converted)
assay readout: Ki

Cc1cccc(-c2[nH]cnc2-c2ccc3ncc(C(=O)OCCC4CNC4)cc3c2)n1 [Compound 761] : 0.0398 to 0.316 nM
Cc1cccc(-c2n[nH]cc2-c2ccc3ncc(NCCN4CCOCC4)cc3n2)n1 [Compound 239] : 0.0398 to 0.316 nM
Cc1cccc(-c2n[nH]cc2-c2ccc3ncc(N4C[C@H]5C[C@@H]4CN5C)cc3n2)n1 (racemic) [Compound 437] : 0.398 to 3.16 nM

Read the next record carefully.
Task item: What value of Ki has been reported for the following molecule? CNC(=O)[C@@H]1CN(c2cnc3ccc(-c4nc[nH]c4-c4cccc(C)n4)cc3c2)CCN1 [Compound 384]
Reply: 0.0398 to 0.316 nM

* * *

experimental target: recombinant human ALK5 (TGF-βR1) protein (Homo sapiens)
Construct: purchased Life Technologies PR9075A
measurement notes: Biochemical ALK5 (TGF-βR1) assay to measure pKi (LANCE Ultra ULight kinase assay)
assay conditions: apparent pKi from pIC50 by Cheng-Prusoff, read-out: ALK5 pKi (converted)
assay readout: Ki

Reference set, count: 2
Cc1cccc(-c2n[nH]cc2-c2ccc3ncc(-c4cn(-c5ccccn5)nn4)cc3n2)n1 [Compound 680] : 0.398 to 3.16 nM
Cc1cccc(-c2n[nH]cc2-c2ccc3ncc(NCC(=O)N4CCOCC4)cc3n2)n1 [Compound 90] : 0.398 to 3.16 nM

Turning now to a further compound:
Task item: Requested read-out Ki, target or system recombinant human ALK5 (TGF-βR1) protein (Homo sapiens), entry Cc1cccc(-c2[nH]cnc2-c2ccc3ncc(C4=CCC(N)CC4)cc3c2)n1 (stereo not drawn) [Compound 196]
Reply: < 0.0316 nM

* * *

experimental target: recombinant human ALK5 (TGF-βR1) protein (Homo sapiens, UniProt P36897)
Construct: purchased Life Technologies PR9075A
measurement notes: Biochemical ALK5 (TGF-βR1) assay to measure pKi (LANCE Ultra ULight kinase assay)
assay conditions: apparent pKi from pIC50 by Cheng-Prusoff, read-out: ALK5 pKi (converted)
assay readout: Ki

Cc1cccc(-c2n[nH]cc2-c2ccc3ncc(N4C[C@@H]5C[C@H]4CN5)cc3n2)n1 : 0.398 to 3.16 nM
Cc1cccc(-c2[nH]cnc2-c2ccc3ncc(C(=O)O[C@H]4CCCC[C@@H]4N)cc3c2)n1 : 3.98 to 31.6 nM
Cc1cccc(-c2n[nH]cc2-c2ccc3nccc(C(=O)NCCCN4CCOCC4)c3n2)n1 : 0.398 to 3.16 nM

Attention now turns to another entry.
Task item: # query: Ki of entry Cc1cccc(-c2[nH]cnc2-c2ccc3ncc(-c4csc(C(=O)OCC5CNC5)n4)cc3c2)n1
Reply: 0.0398 to 0.316 nM
